test: Equilibrium (apparent) solubility of APR, shake flask method; assay type: physicochemical; details: blank SNEDDS preconcentrate, 37 °C, organic solvent or mixture, thermodynamic from solid, Imwitor 988:Kolliphor RH40:Transcutol P (%) 10:40:50, 37 °C; read-out: APR solubility (loading capacity of SNEDDS preconcentrate)
reported-metric: solubility at 24 h (mg/mL)
Write it as a number; the unit mg/mL goes unstated.

Value lookup for solubility at 24 h; key = C[C@@H](O[C@H]1OCCN(Cc2nc(=O)[nH][nH]2)[C@H]1c1ccc(F)cc1)c1cc(C(F)(F)F)cc(C(F)(F)F)c1 [APR]
34.6

###

experiment: Equilibrium (apparent) solubility of APR, shake flask method; type: physicochemical; details: Lauroglycol 90 (cosurfactant), 25 °C, organic solvent or mixture, thermodynamic from solid, cosurfactant Lauroglycol 90, 25 °C; read-out: APR solubility
reported-metric: solubility at 24 h (µg/mL)
Numeric only. Scale: µg/mL

// returns reported solubility at 24 h for input C[C@@H](O[C@H]1OCCN(Cc2nc(=O)[nH][nH]2)[C@H]1c1ccc(F)cc1)c1cc(C(F)(F)F)cc(C(F)(F)F)c1
9320

All values here come from paper PMC8621193.
